Would you kindly list IC50 for each of these compounds?
# Tested on: KB
# Run description: Cytotoxicity against vincristine-sensitive human KB cells
# Assay type: functional, cell-based
Numbers only, in µg/mL.

Example entries begin here.
[
  {
    "Compound": "CC[C@]12CCCNC13/C(=C\\C(=O)OC)c1ccccc1N3C(=O)CC2 (some centres not stated)",
    "Measured value": 15
  },
  {
    "Compound": "C=C1C2=Nc3ccccc3[C@@]23CCN2C/C(=C/C)[C@@H]1C[C@H]23",
    "Measured value": 3.6
  }
]

Now look at this entry.
Report measured IC50; entry is CC[C@]12CCCN3CC[C@]4(C(=C(C(=O)OC)C1)Nc1ccccc14)[C@@H]32
10.2

Source: ChEMBL document CHEMBL1141260
